# tested_on: c-Src SH2
# assay_text: SH2 binding enrichment of the phosphorylated peptide, bacterial display (enrichment ratio); higher = better substrate or ligand; peptides without Tyr show the background;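 further: peptide library displayed on the E. coli surface as eCPX fusions, selected cells deep-sequenced, score is each peptide's frequency after selection divided by its frequency in the input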
assay_readout: SH2 binding enrichment

| sequence_data | quantitative_readout |
| --- | --- |
| FFRDGCMPRQF [GSS_Y270_Y270C_YF] | 0.506 |
| SGGMDYGMVGG [TNRC6B_Y1382] | 0.401 |
| VDTFWYKFLKR [EPM2A_Y86] | 0.602 |
| KVIDMYLMGCF [GABRB2_Y308_A304V] | 0.363 |
| RELSWYRGRRP [HESX1_Y106] | 0.318 |
| SADIAYNFRHG [PAH_Y166_F161S_YF] | 0.535 |
| LVKDPYVMFPQ [PLEKHG2_Y489_P484L] | 1.98 |
| DGTGHYLCNAC [GATA5_Y208] | 0.45 |
| NSIGNYYKPWF [DHCR24_Y299] | 1.09 |
| GLAKGYIDPET [CSNK1G2_Y195_E194G] | 0.5 |
